FYI, the data here is from the supplement of paper PMC10567573.

B1: C8orf76 (parent)
chain: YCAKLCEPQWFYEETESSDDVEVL

# Variants of: B1
# test_description: protein stability index of a GFP-peptide fusion (GPS, HEK-293T) (PSI 1-6); higher = more stable;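 further: lentivirally expressed fusions sorted by FACS into six bins by GFP to DsRed ratio, PSI derived from sequencing read proportions per bin multiplied by bin number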
# experimental_parameters: c terminus: a fixed tail appended
Label 1 when protein stability index >= 2; otherwise -1.

Ask | Check this variant for protein stability index at or above 2: "D20V"
Reply | -1

Ask | Check this variant for protein stability index at or above 2: "W10Y"
Reply | 1

Ask | Check this variant for protein stability index at or above 2: "E14R"
Reply | -1

Ask | Check this variant for protein stability index at or above 2: "Q9I"
Reply | 1

Ask | Check this variant for protein stability index at or above 2: "V23H"
Reply | 1

Ask | Check this variant for protein stability index at or above 2: "S17I"
Reply | -1

Ask | Check this variant for protein stability index at or above 2: "E14V"
Reply | -1

Ask | Check this variant for protein stability index at or above 2: "V21H"
Reply | 1

Ask | Check this variant for protein stability index at or above 2: "L24Y"
Reply | -1

Ask | Check this variant for protein stability index at or above 2: "P8Q"
Reply | 1

Ask | Check this variant for protein stability index at or above 2: "A3S"
Reply | 1

Ask | Check this variant for protein stability index at or above 2: "A3T"
Reply | 1

Ask | Check this variant for protein stability index at or above 2: "L24V"
Reply | 1

Ask | Check this variant for protein stability index at or above 2: "Y1F"
Reply | -1

Ask | Check this variant for protein stability index at or above 2: "Y1R"
Reply | 1

Ask | Check this variant for protein stability index at or above 2: "S17D"
Reply | 1

Ask | Check this variant for protein stability index at or above 2: "W10P"
Reply | 1

Ask | Check this variant for protein stability index at or above 2: "L5C"
Reply | 1

Ask | Check this variant for protein stability index at or above 2: "F11Y"
Reply | -1

Ask | Check this variant for protein stability index at or above 2: "S17Q"
Reply | 1

Ask | Check this variant for protein stability index at or above 2: "E22M"
Reply | -1

Ask | Check this variant for protein stability index at or above 2: "S17H"
Reply | -1

Ask | Check this variant for protein stability index at or above 2: "D19W"
Reply | -1

Ask | Check this variant for protein stability index at or above 2: "S17F"
Reply | -1

Ask | Check this variant for protein stability index at or above 2: "P8F"
Reply | -1

Ask | Check this variant for protein stability index at or above 2: "F11K"
Reply | 1

Ask | Check this variant for protein stability index at or above 2: "S18F"
Reply | -1

Ask | Check this variant for protein stability index at or above 2: "C2S"
Reply | 1

Ask | Check this variant for protein stability index at or above 2: "E14L"
Reply | 1

Ask | Check this variant for protein stability index at or above 2: "E16C"
Reply | -1

Ask | Check this variant for protein stability index at or above 2: "T15R"
Reply | 1

Ask | Check this variant for protein stability index at or above 2: "L5W"
Reply | -1

Ask | Check this variant for protein stability index at or above 2: "W10C"
Reply | 1

Ask | Check this variant for protein stability index at or above 2: "Y1W"
Reply | 1

Ask | Check this variant for protein stability index at or above 2: "Y1E"
Reply | 1

Ask | Check this variant for protein stability index at or above 2: "V23R"
Reply | 1

Ask | Check this variant for protein stability index at or above 2: "Q9E"
Reply | 1

Ask | Check this variant for protein stability index at or above 2: "L5T"
Reply | 1

Ask | Check this variant for protein stability index at or above 2: "F11E"
Reply | 1

Ask | Check this variant for protein stability index at or above 2: "L24G"
Reply | 1

Ask | Check this variant for protein stability index at or above 2: "C2T"
Reply | 1

Ask | Check this variant for protein stability index at or above 2: "P8H"
Reply | 1

Ask | Check this variant for protein stability index at or above 2: "E22A"
Reply | 1

Ask | Check this variant for protein stability index at or above 2: "D19F"
Reply | 1

Ask | Check this variant for protein stability index at or above 2: "K4R"
Reply | 1

Ask | Check this variant for protein stability index at or above 2: "Q9W"
Reply | -1

Ask | Check this variant for protein stability index at or above 2: "E7Y"
Reply | 1

Ask | Check this variant for protein stability index at or above 2: "Y12P"
Reply | 1

Ask | Check this variant for protein stability index at or above 2: "E16G"
Reply | -1

Ask | Check this variant for protein stability index at or above 2: "F11C"
Reply | 1

Ask | Check this variant for protein stability index at or above 2: "D19C"
Reply | -1

Ask | Check this variant for protein stability index at or above 2: "K4F"
Reply | 1

Ask | Check this variant for protein stability index at or above 2: "Y12G"
Reply | 1

Ask | Check this variant for protein stability index at or above 2: "L24K"
Reply | 1

Ask | Check this variant for protein stability index at or above 2: "D19T"
Reply | 1

Ask | Check this variant for protein stability index at or above 2: "T15G"
Reply | 1

Ask | Check this variant for protein stability index at or above 2: "C6F"
Reply | 1

Ask | Check this variant for protein stability index at or above 2: "C6S"
Reply | 1

Ask | Check this variant for protein stability index at or above 2: "E7P"
Reply | 1

Ask | Check this variant for protein stability index at or above 2: "C2V"
Reply | 1

Ask | Check this variant for protein stability index at or above 2: "W10T"
Reply | 1

Ask | Check this variant for protein stability index at or above 2: "E13H"
Reply | -1

Ask | Check this variant for protein stability index at or above 2: "V21D"
Reply | 1

Ask | Check this variant for protein stability index at or above 2: "E13S"
Reply | 1

Ask | Check this variant for protein stability index at or above 2: "E14A"
Reply | 1

Ask | Check this variant for protein stability index at or above 2: "P8W"
Reply | 1

Ask | Check this variant for protein stability index at or above 2: "Y1C"
Reply | 1

Ask | Check this variant for protein stability index at or above 2: "E7A"
Reply | 1

Ask | Check this variant for protein stability index at or above 2: "D19V"
Reply | 1

Ask | Check this variant for protein stability index at or above 2: "F11V"
Reply | 1

Ask | Check this variant for protein stability index at or above 2: "S17P"
Reply | 1

Ask | Check this variant for protein stability index at or above 2: "V23E"
Reply | 1

Ask | Check this variant for protein stability index at or above 2: "E22R"
Reply | 1

Ask | Check this variant for protein stability index at or above 2: "S17R"
Reply | 1

Ask | Check this variant for protein stability index at or above 2: "E13W"
Reply | -1

Ask | Check this variant for protein stability index at or above 2: "S17V"
Reply | 1

Ask | Check this variant for protein stability index at or above 2: "D20I"
Reply | -1

Ask | Check this variant for protein stability index at or above 2: "C2Q"
Reply | 1

Ask | Check this variant for protein stability index at or above 2: "K4M"
Reply | 1

Ask | Check this variant for protein stability index at or above 2: "P8L"
Reply | -1

Ask | Check this variant for protein stability index at or above 2: "F11D"
Reply | 1

Ask | Check this variant for protein stability index at or above 2: "D20W"
Reply | -1

Ask | Check this variant for protein stability index at or above 2: "V23N"
Reply | 1

Ask | Check this variant for protein stability index at or above 2: "T15I"
Reply | -1

Ask | Check this variant for protein stability index at or above 2: "T15S"
Reply | 1

Ask | Check this variant for protein stability index at or above 2: "L5M"
Reply | 1

Ask | Check this variant for protein stability index at or above 2: "A3F"
Reply | 1
